Assay System: human D2-long dopamine receptor (Homo sapiens (Human))
Sequence (P14416 whole entry): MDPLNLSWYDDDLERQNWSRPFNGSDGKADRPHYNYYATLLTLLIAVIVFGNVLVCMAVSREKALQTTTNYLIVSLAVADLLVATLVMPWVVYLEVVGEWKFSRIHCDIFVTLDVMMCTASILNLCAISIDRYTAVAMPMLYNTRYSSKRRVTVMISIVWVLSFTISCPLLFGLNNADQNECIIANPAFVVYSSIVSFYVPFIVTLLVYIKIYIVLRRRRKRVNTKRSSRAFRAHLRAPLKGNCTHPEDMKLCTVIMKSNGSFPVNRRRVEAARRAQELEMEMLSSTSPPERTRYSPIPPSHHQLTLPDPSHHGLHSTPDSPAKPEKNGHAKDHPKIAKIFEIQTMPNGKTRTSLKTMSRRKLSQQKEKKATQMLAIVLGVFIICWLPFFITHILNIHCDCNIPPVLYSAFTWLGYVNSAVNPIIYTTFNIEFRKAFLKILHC
Protocol Text: Radioligand binding (125I-IABN competition), D2
Measurement Conditions: HEK cell membranes expressing human D2-long
pKi: −log10 of the molar value.
Recorded pKi for the following molecules
Recorded Metric: pKi

In [3]: df
Out[3]:
                                query_smiles                              assay_system  recorded_metric  relation  obs_value
 0  CC(C)(C)c1nc(N2CCN(CCCCNC(=O)N3CCc4ccccc4C3)CC2)cc(C(F)(F)F)n1  human D2-long dopamine receptor (Homo sapiens (Human))              pKi         =       6.31
 1  CC(C)(C)c1nc(C2CC2)cc(N2CCN(CCCCNC(=O)c3cn4ccccc4n3)CC2)n1  human D2-long dopamine receptor (Homo sapiens (Human))              pKi         =       6.72
 2  CC(C)(C)c1nc(N2CCN(CCCCNC(=O)c3cn4nc(Cl)ccc4n3)CC2)cc(C(F)(F)F)n1  human D2-long dopamine receptor (Homo sapiens (Human))              pKi         =       6.18
 3  Cc1ccc2[nH]c3c(c2c1)CN(C(=O)NCCCCN1CCN(c2cc(C(C)(C)C)nc(C)n2)CC1)CC3  human D2-long dopamine receptor (Homo sapiens (Human))              pKi         =       5.26
 4  O=C(NCCCCN1CCN(c2ccnc3cc(C(F)(F)F)ccc23)CC1)c1cn2ccccc2n1  human D2-long dopamine receptor (Homo sapiens (Human))              pKi         =       5.30
 5  O=C(NCCCCN1CCN(c2ccccc2)CC1)N1CCN(c2ccccc2)CC1  human D2-long dopamine receptor (Homo sapiens (Human))              pKi         =       6.91
 6  O=C(NCCCCN1CCN(c2ccnc3ccccc23)CC1)c1nc2ccccn2c1Cl  human D2-long dopamine receptor (Homo sapiens (Human))              pKi         =       5.45
 7  O=C(NCCCCN1CCN(c2ccnc3cc(Cl)ccc23)CC1)N1CCC(c2ccccc2)CC1  human D2-long dopamine receptor (Homo sapiens (Human))              pKi         =       5.55
 8  O=C(NCCCCN1CCN(c2ccc3ccccc3n2)CC1)N1CCN(c2ccccc2)CC1  human D2-long dopamine receptor (Homo sapiens (Human))              pKi         =       5.58
 9  COc1ccc2[nH]c3c(c2c1)CN(C(=O)NCCCCN1CCN(c2cc(C(C)(C)C)nc(C)n2)CC1)CC3  human D2-long dopamine receptor (Homo sapiens (Human))              pKi         <       5.30
10  CN1CCC(N2CCN(C(=O)NCCCCN3CCN(c4cc(C(F)(F)F)nc(C(C)(C)C)n4)CC3)CC2)CC1  human D2-long dopamine receptor (Homo sapiens (Human))              pKi         =       6.90
11  CC(C)(C)c1nc(N2CCN(CCCCNC(=O)N3CCN(CC=Cc4ccccc4)CC3)CC2)cc(C(F)(F)F)n1  human D2-long dopamine receptor (Homo sapiens (Human))              pKi         =       6.23
12  CC(C)(C)c1nc(N2CCN(CCCCNC(=O)N3CCC(c4ccc(Cl)cc4)CC3)CC2)cc(C(F)(F)F)n1  human D2-long dopamine receptor (Homo sapiens (Human))              pKi         =       6.05
13  CC(C)(C)c1nc(N2CCN(CCCCNC(=O)N3CCC(N4CCCCC4)CC3)CC2)cc(C(F)(F)F)n1  human D2-long dopamine receptor (Homo sapiens (Human))              pKi         =       7.23
14  CN(C)Cc1c(C(=O)NCCCCN2CCN(c3cc(C(F)(F)F)nc(C(C)(C)C)n3)CC2)nc2ccccn12  human D2-long dopamine receptor (Homo sapiens (Human))              pKi         =       6.52
15  CC(C)(C)c1nc(N2CCN(CCCCNC(=O)c3cn4cccnc4n3)CC2)cc(C(F)(F)F)n1  human D2-long dopamine receptor (Homo sapiens (Human))              pKi         =       6.36
16  Cc1nnc2n1CCN(C(=O)NCCCCN1CCN(c3cc(C(F)(F)F)nc(C(C)(C)C)n3)CC1)C2  human D2-long dopamine receptor (Homo sapiens (Human))              pKi         =       6.42
17  CC(C)(C)c1cc(N2CCN(CCCCNC(=O)N3CCc4[nH]c5ccccc5c4C3)CC2)cc(C(C)(C)C)c1  human D2-long dopamine receptor (Homo sapiens (Human))              pKi         =       5.61
18  CC(C)(C)c1nc(N2CCN(CCCCNC(=O)c3cn4c(CO)cccc4n3)CC2)cc(C(F)(F)F)n1  human D2-long dopamine receptor (Homo sapiens (Human))              pKi         =       6.03
19  Cc1nc(N2CCN(CCCCNC(=O)N3CCc4[nH]c5ccc(Cl)cc5c4C3)CC2)cc(C(C)(C)C)n1  human D2-long dopamine receptor (Homo sapiens (Human))              pKi         =       5.26
20  CC(C)(C)c1nc(N2CCN(CCCCNC(=O)c3cn4ccccc4n3)CC2)c2ccccc2n1  human D2-long dopamine receptor (Homo sapiens (Human))              pKi         =       5.84
21  CC(C)(C)c1nc(N2CCN(CCCCNC(=O)N3CCN(c4ccccn4)CC3)CC2)cc(C(F)(F)F)n1  human D2-long dopamine receptor (Homo sapiens (Human))              pKi         =       6.13
22  CC(C)N1CCN(C(=O)NCCCCN2CCN(c3cc(C(F)(F)F)nc(C(C)(C)C)n3)CC2)CC1  human D2-long dopamine receptor (Homo sapiens (Human))              pKi         =       6.90
23  CC(C)(C)c1nc(N2CCN(CCCCNC(=O)N3CCN(c4ccccc4)CC3)CC2)c2ccccc2n1  human D2-long dopamine receptor (Homo sapiens (Human))              pKi         =       5.39
24  CC(C)(C)c1nc(N2CCN(CCCCNC(=O)N3CCN(c4ccccc4-c4ccccc4)CC3)CC2)cc(C(F)(F)F)n1  human D2-long dopamine receptor (Homo sapiens (Human))              pKi         =       5.99
25  COc1ccccc1N1CCN(C(=O)NCCCCN2CCN(c3cc(C(F)(F)F)nc(C(C)(C)C)n3)CC2)CC1  human D2-long dopamine receptor (Homo sapiens (Human))              pKi         =       6.06
26  CC(C)(C)c1nc(N2CCN(CCCCNC(=O)N3CCN(c4ccccc4)C(=O)C3)CC2)cc(C(F)(F)F)n1  human D2-long dopamine receptor (Homo sapiens (Human))              pKi         =       6.02
27  CC(C)(C)c1nc(N2CCN(CCCCNC(=O)c3cn4ccccc4n3)CC2)cc(C(F)(F)F)n1  human D2-long dopamine receptor (Homo sapiens (Human))              pKi         =       6.29
28  O=C(NCCCCN1CCN(c2ccnc3cc(C(F)(F)F)ccc23)CC1)N1CCN(c2ccccc2)CC1  human D2-long dopamine receptor (Homo sapiens (Human))              pKi         =       5.81
29  COc1cccc(N2CCN(C(=O)NCCCCN3CCN(c4cc(C(F)(F)F)nc(C(C)(C)C)n4)CC3)CC2)c1  human D2-long dopamine receptor (Homo sapiens (Human))              pKi         =       6.12
